Test system: biotinyl-Leu-oxazolone
Test: self-aminoacylation, catalytic enhancement (BLO) (fold over background); higher = more active; k-Seq, kA / k0A0; sequences stand for … in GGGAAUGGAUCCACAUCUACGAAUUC…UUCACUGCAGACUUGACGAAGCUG
Fewer inactive variants are shown than the library holds.
# class assignment by measured self-aminoacylation: small value (below 1), mid value (1 to below 4), large value (4 or more)

# polymerSequence, group
records = [
    ("CAGUUUGCUAAUAGUAGCAAG [Fam3.1 aminoacylation ribozyme variant]", "mid value"),
    ("AUUACCGUGGUUAUCGAGUGA [Fam2.1 aminoacylation ribozyme variant]", "large value"),
    ("AUUACCCUGGUCAUGAAGUGA [Fam2.1 aminoacylation ribozyme variant]", "large value"),
    ("CAACUUCAAACCAUCGGUCUG [Fam1A.1 aminoacylation ribozyme variant]", "mid value"),
    ("CUUACCCUGUUCAUCGAGUGA [Fam2.1 aminoacylation ribozyme variant]", "large value"),
    ("AAGUUUGCUAAUGGUCGAAAG [Fam3.1 aminoacylation ribozyme variant]", "small value"),
    ("CCACACUUCGAGCAAUCCGUC [Fam1B.1 aminoacylation ribozyme variant]", "mid value"),
    ("AUUCACCUAGGUCAUUGAGUG [Fam2.2 aminoacylation ribozyme variant]", "large value"),
    ("AUUACCCCGGUCAUCGAGAGA [Fam2.1 aminoacylation ribozyme variant]", "small value"),
    ("UUUACCCUAGUCAUCGAGUGA [Fam2.1 aminoacylation ribozyme variant]", "large value"),
    ("CCACUCUUCACGCAAUCGGUC [Fam1B.1 aminoacylation ribozyme variant]", "mid value"),
    ("AAGUUUGCUAAUAGGCGCAAU [Fam3.1 aminoacylation ribozyme variant]", "mid value"),
    ("AUUCACCUUGGUCAUCAGGUG [Fam2.2 aminoacylation ribozyme variant]", "mid value"),
    ("AUUCGCCUGGUCAUCGAGUGA [Fam2.1 aminoacylation ribozyme variant]", "large value"),
    ("CCACACUUUAAGCAAUAGGUC [Fam1B.1 aminoacylation ribozyme variant]", "small value"),
    ("AGUCACCUAGGUCAUCGAGUG [Fam2.2 aminoacylation ribozyme variant]", "large value"),
    ("AAUCACCUAGGCCAUCGGGUG [Fam2.2 aminoacylation ribozyme variant]", "mid value"),
]

###

self-aminoacylation reference
Tested on: biotinyl-Phe-oxazolone
Assay: self-aminoacylation, catalytic enhancement (BFO) (fold over background); higher = more active; k-Seq, kA / k0A0; sequences stand for … in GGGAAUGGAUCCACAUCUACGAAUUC…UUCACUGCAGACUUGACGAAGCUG
Fewer inactive variants are shown than the library holds.

# polymerSequence, self-aminoacylation
measured = [
    ("AUUUACCUGGGUCAUCGGGUG [Fam2.2 aminoacylation ribozyme variant]", 57.3),
    ("CUACUUCAAACCAUCCGUCUG [Fam1A.1 aminoacylation ribozyme variant]", 0.573),
    ("AAGUGUGCUAAUAGUCCCAAG [Fam3.1 aminoacylation ribozyme variant]", 3.77),
    ("AUUAGCCUGGUCGUCGAGUGA [Fam2.1 aminoacylation ribozyme variant]", 7.67),
    ("AUUACCCUGGCCAUCGCGUGA [Fam2.1 aminoacylation ribozyme variant]", 56.3),
    ("CCACACUGCAAGCAAUAGGUC [Fam1B.1 aminoacylation ribozyme variant]", 1.15),
    ("AUUCAUCUAGGUCAUCGCGUG [Fam2.2 aminoacylation ribozyme variant]", 128),
    ("AUGUUUACUAAUAGUCGCAAG [Fam3.1 aminoacylation ribozyme variant]", 1.92),
    ("AAUCCCCUGGUCAUCGAGUGA [Fam2.1 aminoacylation ribozyme variant]", 34.4),
]

###

self-aminoacylation reference
System: biotinyl-Trp-oxazolone
Test: self-aminoacylation, catalytic enhancement (BWO) (fold over background); higher = more active; k-Seq, kA / k0A0; sequences stand for … in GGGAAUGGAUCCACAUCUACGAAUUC…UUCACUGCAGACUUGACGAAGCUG
Fewer inactive variants are shown than the library holds.
readoutName: self-aminoacylation

# polymerSequence, value
data = [
    ("AUGUUUGCUAAUCGUCGCAAG [Fam3.1 aminoacylation ribozyme variant]", 1.01),
    ("AUUCAUCUAGGUCAUCGGGAG [Fam2.2 aminoacylation ribozyme variant]", 1.36),
    ("AAGUUUUGUAAUAGUCGCAAG [Fam3.1 aminoacylation ribozyme variant]", 1.84),
    ("CCACACUUCUAGCAAUAGGUC [Fam1B.1 aminoacylation ribozyme variant]", 0.429),
    ("AGGUUUGCUAAUAGUCACAAG [Fam3.1 aminoacylation ribozyme variant]", 2.76),
    ("CCAAACUUCAAGCGAUCGGUC [Fam1B.1 aminoacylation ribozyme variant]", 1.25),
    ("CUACUUCAAUCAAUCGGUUUG [Fam1A.1 aminoacylation ribozyme variant]", 15.1),
    ("AUUCAGCUAGGUCAUCGGGGG [Fam2.2 aminoacylation ribozyme variant]", 2.72),
    ("AUUAAUCUGGUCAUCGAGUGA [Fam2.1 aminoacylation ribozyme variant]", 6.95),
    ("AUUCAUCUAGGACAUCGGGUG [Fam2.2 aminoacylation ribozyme variant]", 3.07),
    ("CCCCACUUCAAGCAAUCGGUC [Fam1B.1 aminoacylation ribozyme variant]", 31.5),
    ("CCACACUUUAAGCGAUCGGUC [Fam1B.1 aminoacylation ribozyme variant]", 1.03),
    ("UUACUUCUAACAAUCGGUCUG [Fam1A.1 aminoacylation ribozyme variant]", 0.836),
    ("AGUCACCAAGGUCAUCGGGUG [Fam2.2 aminoacylation ribozyme variant]", 7.87),
    ("CAACACUCCAAGCAAUCGGUC [Fam1B.1 aminoacylation ribozyme variant]", 1.77),
    ("AUGGCCCUGGUCAUCGAGUGA [Fam2.1 aminoacylation ribozyme variant]", 76.5),
    ("AAGUUGGCUAAUGGUCGCAAG [Fam3.1 aminoacylation ribozyme variant]", 1.23),
    ("AUUCACCUCGGUCAUCGGGGG [Fam2.2 aminoacylation ribozyme variant]", 2.72),
]

###

System: biotinyl-Phe-oxazolone
Assay: self-aminoacylation, catalytic enhancement (BFO) (fold over background); higher = more active; k-Seq, kA / k0A0; sequences stand for … in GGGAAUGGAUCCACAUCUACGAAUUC…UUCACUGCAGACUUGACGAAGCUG
Variants at the floor of the assay were thinned out.
Record satisfied whenever self-aminoacylation is at 30 or higher; record not satisfied when lower.

# polymerSequence, group
data = [
    ("CUACUUCAAACAAAGGGUCUG [Fam1A.1 aminoacylation ribozyme variant]", "not satisfied"),
    ("AAGUUUGCUAAUAGUCGCACC [Fam3.1 aminoacylation ribozyme variant]", "not satisfied"),
    ("CCACACAUCAAGCAAUCGGUG [Fam1B.1 aminoacylation ribozyme variant]", "satisfied"),
    ("AUUCUGCUAGGUCAUCGGGUG [Fam2.2 aminoacylation ribozyme variant]", "satisfied"),
    ("GAGUUUGCUAACAGUCGCAAG [Fam3.1 aminoacylation ribozyme variant]", "not satisfied"),
    ("AUUUACCUAGGACAUCGGGUG [Fam2.2 aminoacylation ribozyme variant]", "not satisfied"),
    ("UUACUUCUAACAAUCGGUCUG [Fam1A.1 aminoacylation ribozyme variant]", "not satisfied"),
    ("AUUCACCAAGGUCAUCGGCUG [Fam2.2 aminoacylation ribozyme variant]", "not satisfied"),
    ("CAACUUCAAACAAUCGGUCGG [Fam1A.1 aminoacylation ribozyme variant]", "satisfied"),
]

###

self-aminoacylation reference
System: biotinyl-Met-oxazolone
Test: self-aminoacylation, catalytic enhancement (BMO) (fold over background); higher = more active; k-Seq, kA / k0A0; sequences stand for … in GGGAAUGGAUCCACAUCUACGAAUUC…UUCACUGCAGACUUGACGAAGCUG
This sample holds only a part of the variants without activity.

# polymerSequence, self-aminoacylation
rows = [
    ("AUUAAACUAGGUCAUCGGGUG [Fam2.2 aminoacylation ribozyme variant]", 3.79),
    ("CCACACUUCAAGCUAUCGGUU [Fam1B.1 aminoacylation ribozyme variant]", 1.18),
    ("AAGUUUGCUAAUACUCGCCAG [Fam3.1 aminoacylation ribozyme variant]", 0.629),
    ("AUUACCCUGGUCUUCGAGUGG [Fam2.1 aminoacylation ribozyme variant]", 1.34),
    ("AAGUUUGCUAAUAGUCACAAA [Fam3.1 aminoacylation ribozyme variant]", 1.32),
    ("GUUACCCCGGUCAUCGAGUGA [Fam2.1 aminoacylation ribozyme variant]", 6.95),
    ("CUACUUCAAAGGAUCGGUCUG [Fam1A.1 aminoacylation ribozyme variant]", 1.04),
    ("AUUUGCCUGGUCAUCGAGUGA [Fam2.1 aminoacylation ribozyme variant]", 8),
    ("AUGUACCUAGGUCAUCGGGUG [Fam2.2 aminoacylation ribozyme variant]", 5.49),
]
